// provenance: ChEMBL document CHEMBL1132410

species: Homo sapiens; experiment: Selectivity for 5-HT6 receptors with respect to the 5-HT1A, 5-HT1B, 5-HT1D, 5-HT1E, 5-HT1F, 5-HT2A, 5-HT2B, 5-HT2C, 5-HT4, 5-HT7, Alpha-1B, D2, D3 receptors.
A collection of compounds and their measured Selectivity

In: Could you please provide reported Selectivity for COc1ccc(NS(=O)(=O)c2c(C)sc3ccc(Cl)cc23)cc1N1CCN(C)CC1 ? Thanks!
Out: > 300

----------
biological target: 5-hydroxytryptamine receptor 1E (Homo sapiens); experiment: Compound was tested for its binding affinity against cloned human 5-hydroxytryptamine 1E receptor in CHO cells using [3H]-5-HT
Sequence (P28566 whole entry): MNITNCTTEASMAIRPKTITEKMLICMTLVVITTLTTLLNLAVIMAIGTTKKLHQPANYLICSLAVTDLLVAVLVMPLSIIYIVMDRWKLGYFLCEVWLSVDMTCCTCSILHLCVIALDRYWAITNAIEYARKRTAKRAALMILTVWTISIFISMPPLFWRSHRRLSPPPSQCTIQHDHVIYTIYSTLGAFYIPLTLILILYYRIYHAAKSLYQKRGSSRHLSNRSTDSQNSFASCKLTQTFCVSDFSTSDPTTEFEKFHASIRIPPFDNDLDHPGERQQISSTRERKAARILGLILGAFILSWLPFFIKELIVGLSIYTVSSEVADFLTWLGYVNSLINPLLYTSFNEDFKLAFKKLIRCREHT
pKi: −log10 of the molar value.
MEASURED_METRIC: pKi

(A) COc1ccc(NS(=O)(=O)c2sc3ccc(Cl)cc3c2C)cc1N1CCN(C)CC1
(B) COc1ccc(NS(=O)(=O)c2ccc(Br)cc2)cc1N1CCN(C)CC1
In: Would you mind telling me which has the lower recorded pKi between A and B ? Your answer should be the label of the entry you select.
Out: A
(A: 5.60, B: 5.80)
